- testDetails: Selectivity index, ratio of CC50 for human Calu-3 cells to EC50 for antiviral activity against Influenza virus HINI A/Puerto Rico/8/34 (A/PR/8/34)
- Format: toxicity
- reportedConditions: read-out: Selectivity Index
metricName: selectivity ratio

Look over these answered cases.
molecule	selectivity ratio
C=C1Cc2cc(C(F)(F)F)ccc2C(=O)NCC(C)(C)/C(=N/OC)CCCCOC1=O	> 43
C=C1Cc2cc(N3CCOCC3)ccc2C(=O)NCC(C)(C)/C(=N/OC)CCCOC1=O	> 8
CO/N=C1\CCCOC(=O)C(C)Cc2cc(C(F)(F)F)ccc2C(=O)NCC1(C)C (centres undefined)	> 36
C=C1Cc2ccc(C(F)(F)F)cc2C(=O)NCC(C)(C)/C(=N/OC)CCCOC1=O	278
C=C1Cc2cc(C(F)(F)F)ccc2C(=O)NCC2(CC2)/C(=N/OC)CCCOC1=O	> 404
C=C1Cc2cc(C(F)(F)F)ccc2C(=O)NCC(C)(C)/C(=N/OC)CCC(C)OC1=O (centres undefined)	> 1040
C=C1Cc2cc(OC)ccc2C(=O)NCC(C)(C)/C(=N/OC)CCCOC1=O	> 95
C=C1Cc2cc(C(F)(F)F)ccc2C(=O)NCC2(CCC2)/C(=N/OC)CCCOC1=O	> 4350

# evaluate next
What does the record list as selectivity ratio for `C=C1Cc2cc(C(F)(F)F)ccc2C(=O)NCC2(CCC2)/C(=N/OC)CC[C@H](C)OC1=O` ?
305

---

- testDetails: Half life in ICR (CD-1) mouse at 10 mg/kg, po measured upto 24 hrs by LC-MS/MS analysis
- Type: ADME, organism-based
- reportedConditions: in vivo
metricName: half-life (min)
Respond with the bare value in min.

What does the record list as half-life for `C=C1Cc2cc(C(F)(F)F)ccc2C(=O)NCC2(CCC2)/C(=N/OC)CCCOC1=O` ?
39

---

- testDetails: Stability of the compound in RPMI 1640 cell culture medium containing 10% fetal bovine serum assessed as compound remaining measured after 24 hrs by LC-MS/MS analysis
- Assay type: physicochemical, cell-free
- reportedConditions: cattle, read-out: Stability
metricName: remaining at 24 h

What does the record list as remaining at 24 h for `C=C1Cc2cc(C(F)(F)F)ccc2C(=O)NCC2(CCC2)/C(=N/OC)CCCOC1=O` ?
> 90%

---

- testDetails: Oral bioavailability in ICR (CD-1) mouse at 10 mg/kg measured upto 24 hrs by LC-MS/MS analysis
- Format: ADME, organism-based
- reportedConditions: in vivo
metricName: bioavailability (%)
Respond with the bare value in %.

What does the record list as bioavailability for `C=C1Cc2cc(C(F)(F)F)ccc2C(=O)NCC2(CCC2)/C(=N/OC)CCCOC1=O` ?
0.12

---

- testDetails: Cmax in ICR (CD-1) mouse at 10 mg/kg, po measured upto 24 hrs by LC-MS/MS analysis
- Type: ADME, organism-based
- reportedConditions: in vivo
metricName: Cmax
Answer by giving the amount and then stating its unit.

What does the record list as Cmax for `C=C1Cc2cc(C(F)(F)F)ccc2C(=O)NCC2(CCC2)/C(=N/OC)CCCOC1=O` ?
2.42 ng/mL

---

- testDetails: AUC (0 to infinity) in ICR (CD-1) mouse at 10 mg/kg, po measured upto 24 hrs by LC-MS/MS analysis
- Assay type: ADME, organism-based
- reportedConditions: in vivo
metricName: AUC(0-inf) (ng·h/mL)
Respond with the bare value in ng·h/mL.

What does the record list as AUC(0-inf) for `C=C1Cc2cc(C(F)(F)F)ccc2C(=O)NCC2(CCC2)/C(=N/OC)CCCOC1=O` ?
2.65

---

- testDetails: Tmax in ICR (CD-1) mouse at 10 mg/kg, po measured upto 24 hrs by LC-MS/MS analysis
- Assay type: ADME, organism-based
- reportedConditions: in vivo
metricName: Tmax

What does the record list as Tmax for `C=C1Cc2cc(C(F)(F)F)ccc2C(=O)NCC2(CCC2)/C(=N/OC)CCCOC1=O` ?
15 min

---

- Tested on: Influenza A virus
- testDetails: Antiviral activity against Influenza virus H3N2 (A/Hong Kong/8/68) infected in human Calu-3 cells assessed as viral RNA measured after 3 days by one-time real time PCR assay
- Format: functional, organism-based
- reportedConditions: Calu-3, 72 h
metricName: EC50

C=C1Cc2cc(C(F)(F)F)ccc2C(=O)NCC(C)(C)/C(=N/OC)CC[C@H](C)OC1=O > 50 µM

# evaluate next
I'm curious: which EC50 was measured for `C=C1Cc2cc(C(F)(F)F)ccc2C(=O)NCC2(CCC2)/C(=N/OC)CCCOC1=O` tested on Influenza A virus?
> 50 µM

---

- testDetails: Clearance in ICR (CD-1) mouse at 2 mg/kg, iv measured upto 24 hrs by LC-MS/MS analysis
- Type: ADME, organism-based
- reportedConditions: in vivo
metricName: clearance (mL/min/kg)
Respond with the bare value in mL/min/kg.

What does the record list as clearance for `C=C1Cc2cc(C(F)(F)F)ccc2C(=O)NCC2(CCC2)/C(=N/OC)CCCOC1=O` ?
151

---

- testDetails: Stability of the compound in pH 7.4 PBS buffer assessed as compound remaining measured after 24 hrs by LC-MS/MS analysis
- Assay type: physicochemical
- reportedConditions: read-out: Stability
metricName: remaining at 24 h

What does the record list as remaining at 24 h for `C=C1Cc2cc(C(F)(F)F)ccc2C(=O)NCC2(CCC2)/C(=N/OC)CCCOC1=O` ?
> 90%

---

- testDetails: Selectivity index, ratio of CC50 for human Calu-3 cells to EC50 for antiviral activity against Influenza virus HINI A/Puerto Rico/8/34 (A/PR/8/34)
- Format: toxicity
- reportedConditions: read-out: Selectivity Index
# selectivity ratio values compiled below

Look over these answered cases.
compound	selectivity ratio
C=C1Cc2cc(C(F)(F)F)ccc2C(=O)NCC(C)(C)/C(=N/OC)CCC(CO)OC1=O (stereo not given)	> 4
C=C1Cc2ccccc2C(=O)NCC(C)(C)/C(=N/OC)CCCOC1=O	> 101
C=C1Cc2cc(C(F)(F)F)ccc2C(=O)NCC(C)(C)/C(=N/OC)CCCNC1=O	> 152

What does the record list as selectivity ratio for `C=C1Cc2cc(F)ccc2C(=O)NCC(C)(C)/C(=N/OC)CCCOC1=O` ?
> 60

What does the record list as selectivity ratio for `C=C1Cc2cc(C(F)(F)F)ccc2C(=O)NCC(C)(C)/C(=N/OCC(F)(F)F)CCCOC1=O` ?
> 233

What does the record list as selectivity ratio for `C=C1Cc2cc(C(F)(F)F)ccc2C(=O)NCC(C)(C)/C(=N/O)CCCCOC1=O` ?
> 1.7

What does the record list as selectivity ratio for `C=C1Cc2cc(C(F)(F)F)ccc2C(=O)NCC(C)(C)/C(=N/OC)CC[C@H](C)OC1=O` ?
6950

What does the record list as selectivity ratio for `C=C1Cc2cc(C(F)(F)F)ccc2C(=O)NCC(C)(C)/C(=N/OC)CCCOC1=O` ?
> 226

What does the record list as selectivity ratio for `C=C1Cc2cc(C(F)(F)F)ccc2C(=O)NCC(C)(C)/C(=N/OC)CC[C@@H](C)OC1=O` ?
18

What does the record list as selectivity ratio for `C=C1Cc2cc(NC(C)=O)ccc2C(=O)NCC(C)(C)/C(=N/OC)CCCOC1=O` ?
> 37

Value source: ChEMBL document CHEMBL5506048
